# target-under-test: hGLP-1R (Homo sapiens)
# Sequence (P43220 24-463): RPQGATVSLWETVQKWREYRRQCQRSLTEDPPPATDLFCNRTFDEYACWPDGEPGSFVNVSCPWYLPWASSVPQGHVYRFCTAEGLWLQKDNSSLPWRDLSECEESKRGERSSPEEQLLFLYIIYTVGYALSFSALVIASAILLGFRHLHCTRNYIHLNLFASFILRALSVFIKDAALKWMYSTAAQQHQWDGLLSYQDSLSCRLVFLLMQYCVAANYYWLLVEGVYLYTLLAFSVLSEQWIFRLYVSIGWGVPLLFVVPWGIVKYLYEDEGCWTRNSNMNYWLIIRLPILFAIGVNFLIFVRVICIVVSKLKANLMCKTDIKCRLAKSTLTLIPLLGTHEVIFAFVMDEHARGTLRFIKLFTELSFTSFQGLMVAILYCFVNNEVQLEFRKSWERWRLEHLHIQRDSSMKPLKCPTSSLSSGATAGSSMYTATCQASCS
# test-details: Functional cAMP activation in the presence of 0.1% casein (no HSA);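 further: intracellular cAMP rise after 30 min at 37 °C read by HTRF, normalized between buffer only (0%) and maximal control ligand (100%), four-parameter variable-slope fit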
# Type: cell-based
# measurement-setup: 0.1% casein, no HSA; geometric mean; read-out: Relative cAMP EC50, hGLP-1R
pEC50: −log10 of the molar value. Starred links: 1 amine or outer side, 2 acyl side, 3 side chain; linkers in the order of their positions; H or OH if unused. Non-standard residues stand in square brackets, D forms with d. Groups on a side chain read outwards from the residue. No end group written: not given here. *: point of attachment. C18 diacid = O=C(O)CCCCCCCCCCCCCCCCC(=O)*; αMePhe(2-F) = C[C@](N)(Cc1ccccc1F)C(=O)O; γGlu = O=C(O)[C@H](CCC(=O)[*:2])N[*:1]; αMe4Pal = C[C@](N)(Cc1ccncc1)C(=O)O; αMeY = C[C@](N)(Cc1ccc(O)cc1)C(=O)O; 4Pal = N[C@@H](Cc1ccncc1)C(=O)O; αMeL = CC(C)C[C@](C)(N)C(=O)O; αMeS = C[C@](N)(CO)C(=O)O; Orn = NCCC[C@H](N)C(=O)O; AEEA = NCCOCCOCC(=O)O; Aib = CC(C)(N)C(=O)O
measured-endpoint: pEC50

H-Y[Aib]QGT[αMePhe(2-F)]TSD[4Pal][αMeS]I[αMeL]LD[Orn]K([AEEA-γGlu-C18 diacid])AQ[αMe4Pal]EFI[dE][αMeY]LIEGGPSSGAPPPEGGGEE-NH2 [Example 1216]	9.19
Y[Aib]Q[dA]T[αMePhe(2-F)]TSD[4Pal][αMeS]I[αMeL]LD[Orn]K([AEEA-γGlu-C18 diacid])AQ[Aib]EFI[dE][αMeY]LIEGGPSSGAPPPSGS-NH2 [Example 1203]	9.53
H-Y[Aib]QGT[αMePhe(2-F)]TSD[4Pal][αMeS]I[αMeL]LD[Orn]K([AEEA-γGlu-C18 diacid])AQ[αMe4Pal]EFI[dE][αMeY]LIEGGPPS[Aib][Orn]PPP[Orn]GE-NH2 [Example 1195]	9.44
H-Y[Aib]QGT[αMePhe(2-F)]TSD[4Pal][αMeS]I[αMeL]LD[Orn]K([AEEA-γGlu-C18 diacid])AQ[αMe4Pal]EFI[dE][αMeY]LIEGGPPS[Aib]EPPPSGGGE-NH2 [Example 1201]	9.05
H-Y[Aib]Q[dA]T[αMePhe(2-F)]TSD[4Pal][αMeS]I[αMeL]LD[Orn]K([AEEA-γGlu-C18 diacid])AQ[Aib]EFI[dE][αMeY]LIEGGPSSGAPPPSGSE-NH2 [Example 1222]	9.46
Y[Aib]QGT[αMePhe(2-F)]TSD[4Pal][αMeS]I[αMeL]LD[Orn]K([AEEA-γGlu-C18 diacid])AQ[αMe4Pal]EFI[dE][αMeY]LIEGGPPS[Aib][Orn]PPPSGSE-NH2 [Example 1198]	9.32
H-Y[Aib]QGT[αMePhe(2-F)]TSD[4Pal][αMeS]I[αMeL]LD[Orn][Orn]([AEEA-γGlu-C18 diacid])AQ[αMe4Pal]EFI[dE][αMeY]LIEGGPSSGAPPPSGSE-NH2 [Example 1212]	9.45
